Documented binding signal across a set of binders
# systemName: AGO2 F182del (Homo sapiens, UniProt Q9UKV8 1-859, S387D;S824A;S828D;S831D;S834A;del182-182)
# Sequence (Q9UKV8 other isoform, or with tags, fused parts or gaps S387D;S824A;S828D;S831D;S834A;del182-182): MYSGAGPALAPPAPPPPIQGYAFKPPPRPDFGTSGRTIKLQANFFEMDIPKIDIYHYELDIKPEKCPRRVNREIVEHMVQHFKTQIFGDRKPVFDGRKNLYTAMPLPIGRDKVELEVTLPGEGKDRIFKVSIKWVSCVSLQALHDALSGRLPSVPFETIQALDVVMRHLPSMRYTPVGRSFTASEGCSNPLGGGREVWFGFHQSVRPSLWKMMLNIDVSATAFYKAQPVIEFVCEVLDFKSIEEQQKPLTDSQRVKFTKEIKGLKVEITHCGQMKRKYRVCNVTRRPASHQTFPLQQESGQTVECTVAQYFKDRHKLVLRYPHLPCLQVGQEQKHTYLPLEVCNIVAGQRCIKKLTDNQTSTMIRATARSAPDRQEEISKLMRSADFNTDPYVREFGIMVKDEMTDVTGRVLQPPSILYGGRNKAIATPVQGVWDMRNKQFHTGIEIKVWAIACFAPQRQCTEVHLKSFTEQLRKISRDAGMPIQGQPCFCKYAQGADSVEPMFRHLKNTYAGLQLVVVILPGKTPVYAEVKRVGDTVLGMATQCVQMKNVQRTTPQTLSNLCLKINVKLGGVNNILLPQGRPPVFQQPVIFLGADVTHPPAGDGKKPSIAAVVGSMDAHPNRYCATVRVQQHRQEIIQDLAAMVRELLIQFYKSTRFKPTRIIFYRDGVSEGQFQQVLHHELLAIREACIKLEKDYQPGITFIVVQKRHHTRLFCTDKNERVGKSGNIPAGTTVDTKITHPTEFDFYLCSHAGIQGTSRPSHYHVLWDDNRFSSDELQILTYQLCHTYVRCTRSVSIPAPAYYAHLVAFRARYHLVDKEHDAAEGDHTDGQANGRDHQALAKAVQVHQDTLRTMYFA
# assayMethodText: RNA Bind-n-Seq (nitrocellulose filter binding and sequencing); miR-122 guide loaded in AGO2; 60 min incubation; 30 mM Tris pH 8.0, 100 mM potassium acetate, 2 mM magnesium acetate, 0.5 mM TCEP, 0.005% NP-40, 0.01 mg/ml yeast tRNA; 3 nM AGO2-miR-122, 100 nM RNA library; 60; high values mean tight binding
# measurementContext: protein: recombinant; tags: His6 (N-terminal, pFastBac HTA)

binder="GTGCTTCA (ssRNA, constant regions annealed to DNA blockers; guide miR-122 5' phosphate) RNA 1: GAGUUCUACAGUCCGACGAUCCCAACGUGCUUCACACCUGGAAUUCUCGGGUGCCAA RNA 2: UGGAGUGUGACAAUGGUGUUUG DNA 1: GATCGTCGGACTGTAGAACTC DNA 2: TTGGCACCCGAGAATTCCA" measurementtype="binding signal" experimentalvalue="0.235 fold enrichment over input"

Which value of binding signal has been reported for ACGCCCCA (ssRNA, constant regions annealed to DNA blockers; guide miR-122 5' phosphate) RNA 1: GAGUUCUACAGUCCGACGAUCCCAACACGCCCCACACCUGGAAUUCUCGGGUGCCAA RNA 2: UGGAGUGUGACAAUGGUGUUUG DNA 1: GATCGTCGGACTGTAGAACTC DNA 2: TTGGCACCCGAGAATTCCA in the records?
0.236 fold enrichment over input

What binding signal value was documented for this binder, GCACCTTA (ssRNA, constant regions annealed to DNA blockers; guide miR-122 5' phosphate) RNA 1: GAGUUCUACAGUCCGACGAUCCCAACGCACCUUACACCUGGAAUUCUCGGGUGCCAA RNA 2: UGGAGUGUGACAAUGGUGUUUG DNA 1: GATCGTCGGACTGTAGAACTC DNA 2: TTGGCACCCGAGAATTCCA ?
0.717 fold enrichment over input

Please give the measured binding signal for this binder: GCGTCTCA (ssRNA, constant regions annealed to DNA blockers; guide miR-122 5' phosphate) RNA 1: GAGUUCUACAGUCCGACGAUCCCAACGCGUCUCACACCUGGAAUUCUCGGGUGCCAA RNA 2: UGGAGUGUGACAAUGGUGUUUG DNA 1: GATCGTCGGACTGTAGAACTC DNA 2: TTGGCACCCGAGAATTCCA
0.747 fold enrichment over input
